STUDY_SYSTEM: D(3) dopamine receptor (Homo sapiens) (UniProt P35462)
Sequence (P35462 whole entry, looked up): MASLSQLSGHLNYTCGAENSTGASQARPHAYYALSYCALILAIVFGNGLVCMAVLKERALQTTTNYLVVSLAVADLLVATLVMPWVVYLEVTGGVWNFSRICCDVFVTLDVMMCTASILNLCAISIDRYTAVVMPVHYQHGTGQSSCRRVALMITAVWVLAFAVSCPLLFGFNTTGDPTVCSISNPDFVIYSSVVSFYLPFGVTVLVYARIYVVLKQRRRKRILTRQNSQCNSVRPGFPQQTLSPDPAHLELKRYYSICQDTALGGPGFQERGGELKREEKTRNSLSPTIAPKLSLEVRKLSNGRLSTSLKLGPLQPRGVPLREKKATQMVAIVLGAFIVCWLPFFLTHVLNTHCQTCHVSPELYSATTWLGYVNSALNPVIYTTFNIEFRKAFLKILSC
ASSAY_OVERVIEW: qHTS of D3 Dopamine Receptor Antagonist: qHTS; also: % is scaled to controls: 0 for no effect and ±100 for the full control effect
CONDITION_NOTES: D3R cells, DiscoveRx beta-arrestin luminescence, antagonist mode
Out of some 360,000 compounds screened, about 9,100 (2.5%) were called active. Roughly 4% stayed inconclusive and do not appear here. Rule as the data show it: active = max response below about -50%; inconclusive = no clear call, values can overlap the other calls; inactive = above that. The list comes from a sample in which actives are over-represented; it also holds close analogues and randomly drawn compounds.
# output must be one of active, inactive

Please review the following examples before continuing.
SMILES_DATA: Cc1nn(C)cc1CNC(=O)Nc1ccc(Cl)cc1
LABEL: inactive

SMILES_DATA: CCOc1ccc2[nH]c(=O)c(CN(CCCO)C(C)=O)cc2c1
LABEL: inactive

SMILES_DATA: CCOc1ccc2[nH]c(=S)sc2c1
LABEL: active

SMILES_DATA: CC(=O)Nc1cccc(-c2cc(NC=O)c3ncc(-c4ccc(F)c(Cl)c4)n3c2)c1
LABEL: inactive

SMILES_DATA: CC(=O)Nc1cc(-c2ccccc2F)cn2c(-c3cccc(C(F)(F)F)c3)cnc12
LABEL: inactive

[Q] // return assay outcome for "CC(=O)Nc1cc(-c2cccc(CO)c2)cn2c(-c3cccc(C(F)(F)F)c3)cnc12"
[A] active

[Q] I'd appreciate the recorded outcome for "Nc1ccc2[nH]c(=S)sc2c1" from this test.
[A] inactive

[Q] Please indicate how the test categorized "Clc1ccccc1Nc1nc(NCc2cccs2)nc2ccsc12" .
[A] inactive

[Q] GET /call?item= "CCCCC[C@@H]1C=C(C(=O)OCC)[C@H](c2ccccc2)N1S(=O)(=O)c1ccc(C)cc1" returns the recorded outcome of this test.
[A] inactive

[Q] Hi team, can someone confirm the assay call for "COc1ccccc1-c1cc(NC(C)=O)c2ncc(-c3ccc(F)cc3)n2c1" ?
[A] inactive

[Q] For "CCS(=O)(=O)c1ccc(O)c(NC(=O)COc2ccc(Cl)cc2)c1" , what call appears in the results of this test?
[A] inactive

---

STUDY_SYSTEM: D(3) dopamine receptor (Homo sapiens) (UniProt P35462)
ASSAY_OVERVIEW: qHTS of D3 Dopamine Receptor Antagonist: qHTS; also: % is scaled to controls: 0 for no effect and ±100 for the full control effect
CONDITION_NOTES: D3R cells, DiscoveRx beta-arrestin luminescence, antagonist mode
The whole screen tested about 360,000 compounds, of which about 9,100 (2.5%) were called active. Not shown: some 4% with an inconclusive outcome. No stated cut-off is given here; in the data, active means max response below about -50%; inconclusive means no clear call, values can overlap the other calls; inactive means above that. This is one part of a sample in which actives are shown more often than they occur.
Bench note: report the call from true (1) = active, false (0) = inactive

# count of solved cases: 4
COMPOUND: O=C(NN=Cc1ccc2c(c1)CCC2)c1ccccc1O
LABEL: false (0)
//
COMPOUND: Cc1ccc(S(=O)(=O)C(C#N)c2nc3ccccc3nc2N2CCCC2)cc1C (stereo not drawn)
LABEL: false (0)
//
COMPOUND: COc1cc(Cn2c3ccc(NC(=O)CC(C)c4ccccc4)cc3c(=O)n2C)ccc1F (stereo not drawn)
LABEL: false (0)
//
COMPOUND: COc1cccc(OC)c1C(=O)N1CCN(Cc2ccccc2F)CC1
LABEL: false (0)

[Q] How did this test come out for "Cc1ccccc1CN1CCN(C(=O)c2cccc(F)c2)CC1" ?
[A] true (1)

[Q] Test call, this compound: CC1(C2CC2)NC(=O)N(CC(=O)N2CCN(c3ccccc3F)CC2)C1=O (stereo not drawn)
[A] false (0)

[Q] Assay outcome for "COc1cc2nnn(-c3ccncc3)c2cc1OC" : what was it?
[A] false (0)

[Q] Please indicate how the test categorized "Cc1ccc(OCCCC(=O)N2CCOCC2)c(C)c1" .
[A] false (0)

[Q] Any idea what this test logged for "O=c1c2c3c(sc2n(CCN2CCCC2)c(=O)n1Cc1ccccc1)CCCCC3" ?
[A] false (0)

[Q] Record lookup: outcome of this test for COCCNC(=O)C1(C)CCCN(Cc2cccc(F)c2)C1 (stereo not drawn) ?
[A] false (0)
